# Test system: Human Cytomegalovirus (HCMV)
# test.protocol: HCMV antiviral assay, HCMV DNA quantified by DNA hybridization in MRC-5 cells
# Format: cell-based
# conditions: Human CMV replication in MRC-5 human lung fibroblasts, DNA reduction; average of 3 to 6 determinations (ADV single replication in duplicate); read-out: EC50
Below, each of the molecules is paired with its reported EC50 value.

# annotated cases, reported EC50 shown
molecule	system.name	result
CCCCCCCCCCCCCCCCCCOCCOP(=O)(O)COC(CO)Cn1ccc(N)nc1=O (stereo not shown)	Human Cytomegalovirus (HCMV)	40 nM
CCCCCCCCCCCCCCCCCCOCCCOP(=O)(O)COC(CO)Cn1ccc(N)nc1=O (stereo not shown)	Human Cytomegalovirus (HCMV)	0.03 nM
CCCCCCCCCCCCCCCCCCOCCOP1(=O)COC(Cn2ccc(N)nc2=O)CO1 (stereo not shown)	Human Cytomegalovirus (HCMV)	55000 nM

Prompt line: Return reported EC50; argument: CCCCCCCCCCCCCCCCOP1(=O)CO[C@@H](Cn2ccc(N)nc2=O)CO1 (stereo partly shown)
Response line: 100 nM

Entry source: patent US20070003608A1
